Items are presented alongside their recorded melting point.

Some solved entries appear below for comparison.
In [3]: df
Out[3]:
                                   compound           result
0  Cc1nc2c(C(F)(F)F)cccc2c(-c2ccccc2)c1C(=O)c1ccccc1    175 to 177 °C
1               CCc1nn(C2CCCC2)c(N)c1C(N)=O    167 to 168 °C
2  CC(=O)OC1CSC(Oc2cncc(-c3ccc(OC(C)C)c(F)c3)c2)C(OC(C)=O)C1OC(C)=O (stereo not given)            65 °C
3                           CNc1nc(SC)ncc1C           134 °C
4                COc1cc(C=O)cc(C(F)(F)F)c1O    151 to 152 °C
5  CCOC(=O)C1=Cc2cc(C=O)ccc2OC1C(F)(F)F (stereo not given)  84.3 to 86.2 °C
6  CSc1nc(=O)c2cccc3c2n1-c1cc(C(F)(F)F)ccc1S3    229 to 231 °C
7             O=[N+]([O-])c1ccc(F)c2ncccc12    132 to 133 °C

Q: Could you share which melting point value was measured for CCC(O)(CC)c1ccc(-c2cc(-c3c[nH]nc3-c3cccc(C)n3)ccc2F)nc1 ?
Result: 94 to 95 °C

Q: Could you share which melting point value was measured for CC1CCCC(C)N1Cc1ccc(NC(=O)C#Cc2ccc(-c3ccc(Cl)cc3)cc2)cc1 (stereo not given) ?
Result: 158 to 163 °C

###

Items are presented alongside their recorded melting point.

                                   compound         result
0  FC(F)(F)C1(c2cc(Cl)cc(Cl)c2)CC(c2ccc(-n3cccn3)cc2)=NO1 (configuration not stated)  174 to 175 °C
1   O=c1ccn(-c2c(O)c3ccc(Cl)cc3[nH]c2=O)cc1         340 °C
2  CCC12CCC3C(=CCC4(C)C(O)CCC34)C1(C)CCC(O)C2 (configuration not stated)         165 °C

Q: Could you share which melting point value was measured for CN(C)C1CCN(c2nc(N3CCOCC3)c3ncnc(OCc4ccccc4)c3n2)CC1 ?
Result: 186 to 188 °C

Q: Could you share which melting point value was measured for O=S1(=O)CC=C(CBr)C1 ?
Result: 76 to 84 °C

Q: Could you share which melting point value was measured for O=C1N(c2ccc(Br)cc2)C(Cl)(Cl)C2CCCCC12Cl (configuration not stated) ?
Result: 148 to 150 °C

Q: Could you share which melting point value was measured for Cc1c(-c2cc(N(C)C)ncn2)ssc1=S ?
Result: 137 °C

Q: Could you share which melting point value was measured for O=c1cc(CN2CCOCC2)oc(-c2ccc(O)cc2)c1 ?
Result: 162 to 164 °C

Q: Could you share which melting point value was measured for COc1nc(SC)cnc1NS(=O)(=O)c1cccc(Cl)c1Cl ?
Result: 141 to 142 °C

Q: Could you share which melting point value was measured for N#Cc1cncc(-c2ccc(OC[C@@H](N)Cc3ccccc3)cc2)c1Nc1cccc2[nH]ccc12 ?
Result: 83 to 85 °C

Q: Could you share which melting point value was measured for Cc1oc2c(C)c(C)c(NCc3ccc(F)cc3)c(C)c2c1-c1ccc(C(C)C)cc1 ?
Result: 95 to 97 °C

Q: Could you share which melting point value was measured for CCN(CC)c1ccc(/C=C/C(=O)CC(=O)/C=C/c2ccc3cc[nH]c3c2)c(OCc2ccccc2)c1 ?
Result: 160 to 163 °C

Q: Could you share which melting point value was measured for O=C(Nc1ccccc1)c1ccc(F)c(NC(=S)Nc2cc(Cl)cc(Cl)c2)c1 ?
Result: 173 to 175 °C

Q: Could you share which melting point value was measured for Cc1nc(-n2ccc(OCc3ccc(OC(F)F)cc3)cc2=O)sc1C(=O)NCc1ccc(F)cc1 ?
Result: 242 to 244 °C

Q: Could you share which melting point value was measured for O=S(=O)(CC=Cc1ccccc1)CCCO ?
Result: 86 °C
